B1: H2-Kb / Ed21 (parent complex)
chain 1: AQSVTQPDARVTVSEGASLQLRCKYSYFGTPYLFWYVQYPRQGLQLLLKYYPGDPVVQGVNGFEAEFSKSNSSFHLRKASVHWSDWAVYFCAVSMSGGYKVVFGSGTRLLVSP
chain 2: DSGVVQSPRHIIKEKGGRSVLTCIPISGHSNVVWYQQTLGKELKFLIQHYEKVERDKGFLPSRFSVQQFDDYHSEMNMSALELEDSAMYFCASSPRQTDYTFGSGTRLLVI
chain 3: not shown
chain 4: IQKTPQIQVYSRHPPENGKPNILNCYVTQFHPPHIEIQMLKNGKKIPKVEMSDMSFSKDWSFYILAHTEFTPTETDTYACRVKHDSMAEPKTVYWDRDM
chain 5: SIINFEKL

Variants of: B1
Assay: % of reporter cells activated (NFAT-GFP), raw; also: test concentration or dose not given here
readout_name: ratio to parent
Enter a number only.

Would you please look over these solved cases?
Report measured ratio to parent; entry is chain 5 F5N
0.947

Report measured ratio to parent; entry is chain 5 I2C
0.995

Report measured ratio to parent; entry is chain 5 N4R
0.476

Report measured ratio to parent; entry is chain 5 I3F
0.869

The record that follows has no ratio to parent shown yet.
Report measured ratio to parent; entry is chain 5 F5S
0.886
